Tested on: MS2 coat protein
Assay: apparent KD of MS2 coat protein; higher = weaker reporter binding
Conditions: Eterna round: R107; input ligand: arginine 13.2 mM
PROPERTY NAME: apparent KD of MS2 coat protein (nM)
All answers are understood in nM, so give the number only.

SEQ TEXT	apparent KD of MS2 coat protein [nM]
GCAUCCUAGUCGGCCGCCACUGGGUGUACCCAGUGCUGGUACAAACAUGAGGAUCACCCAUGUACCAGGACCGGGACUAGGAUGC [(Trp1)-(MT2)''-(T1)'-(MT2)'-(Ms2)-(Trp2)_Design4]	10.8
GCUAGGUCUACGGCCGCCACUAGACGUGGGUAAGACAUGAGGAUCACCCAUGUACUACGGGCGCUUAGGACCGGGUAGACCUAGC [SSTB NP+V+V2 #17 +-Same Structure]	116

The sequence listed as AAGAACAUGAGGAUCACCCAUGUGAUCGUUCGAGGACCGGUACGGCCGCCACUCGGACCUGUGUCCAGGCACGGGCCGACGCGAC [theeternabot_sameState_MS2_Trp_A_21] shows apparent KD of MS2 coat protein equal to 74.8

----------
System: MS2 coat protein
Assay: apparent KD of MS2 coat protein; designed switch direction (-1 OFF switch, 1 ON switch): 1; higher = weaker reporter binding
Conditions: input ligand: microRNA oligo, concentration not stated
Overview of recorded apparent KD of MS2 coat protein for various sequences
All answers are understood in nM, so give the number only.

Given the sequence GGACGUCAUCUCACUGAUUAAACAUGAGGAUCACCCAUGUCACAGGAUAUGGAUCCGAUUAGGAUCCAGAAGGGUGUGACGUCC [Fiskers NG3ss - 43] (Eterna round: R96, puzzle: Same State NG 3) and test system MS2 coat protein, the measured apparent KD of MS2 coat protein is 19.3

Given the sequence CAAACCGACACAGGAUAUGGAGCCGACCGGCACAUGAGGAUCACCCAUGUGCUACAGGUAUGUAGCUAGAAGGGUGAAGGUAUC [Eternabot solution 29] (Eterna round: R96, puzzle: Same State NG 2) and test system MS2 coat protein, the measured apparent KD of MS2 coat protein is 56.9

Given the sequence GUUAAGAACUAAGGAUAUUGAAUACAUAUGUUUAACAUGAGGAUCACCCAUGUGGGUUGCGGUGUCGAGAAGGUAGAAUAAUAG [Mat - same State NG 2 - JL mod - D98] (Eterna round: R96, puzzle: Same State NG 2) and test system MS2 coat protein, the measured apparent KD of MS2 coat protein is 148

Given the sequence GUGGUCAGACAUGAGGAUCACCCAUGUGGAAUAAAUAACGGUGAGGAUAUGGAAUAUAGGAUAUACUAGAAGGCAUGAUUGGUG (Eterna round: R96, puzzle: Same State NG 3) and test system MS2 coat protein, the measured apparent KD of MS2 coat protein is 76.9

----------
Overview of recorded apparent KD of MS2 coat protein for various sequences
Tested on: MS2 coat protein
Experiment: apparent KD of MS2 coat protein; designed switch direction (-1 OFF switch, 1 ON switch): -1; higher = weaker reporter binding
Conditions: input ligand: FMN 200 uM
The answer consists of two parts: a number and, after it, its unit.

Some sequences with known apparent KD of MS2 coat protein results, for comparison:
SEQ TEXT	apparent KD of MS2 coat protein
GUCACAUGGAUGUAGGAUCACAUGAGGAUCACCCAUGUGACUAACAAGGUUUUUGCUCAUCUUAUGACUAUGUGAAU [A Brourd mod] (Eterna round: R97, puzzle: Sensor, turn-off variant 1)	91.7 nM
AUUUUGUCAGGAUAUUAGUAGUAAAUGAAUAAAAUUAUUACUGAGAAGGGACAUGAGGAUCACCCAUGUGUCUU [Mat - Exclusion 4 - Eli Mod - D9] (Eterna round: R97, puzzle: Exclusion 4)	24.1 nM

The sequence listed as GCUGGUCAAGGAUAUGCAUUCGUGCUUCGGCACGUAAGGUCACAUGAGGAUCACCCAUGUAGAAGGUGACCAGC [E2/6-C1] (Eterna round: R97, puzzle: Exclusion 2) shows apparent KD of MS2 coat protein equal to 31.6 nM

The sequence listed as AUUAUGUUAGGAUAUGCUUAUGGUGGAUAGUCCAGUAUGAUGUAGAAGGGACAUGAGGAUCACCCAUGUGCUGA [EX4 #34] (Eterna round: R97, puzzle: Exclusion 4) shows apparent KD of MS2 coat protein equal to 46.9 nM

The sequence listed as AAUGAUUGAUGAGGAUAUUGUGGUGAAACACGACGAGAAGGCAUAUGUCACAUGAGGAUCACCCAUGUGAGCCUUGUGGAUAUA [Ex NG1 #66] (Eterna round: R96, puzzle: Exclusion NG 1) shows apparent KD of MS2 coat protein equal to 115 nM

----------
Tested on: MS2 coat protein
Experiment: apparent KD of MS2 coat protein; designed switch direction (-1 OFF switch, 1 ON switch): -1; higher = weaker reporter binding
Settings: input ligand: FMN 200 uM
apparent KD of MS2 coat protein below 40 nM gives no (0); apparent KD of MS2 coat protein at or above it gives yes (1).

SEQ TEXT	CATEGORY LABEL
GACUGAGCAGGAUAUACAUGAGGAUCACCCAUGUUGGUUCAGCGACGAUAGUCGCAAUGUAGAAGGGCUCAGUC [E3/9-D2] (Eterna round: R97, puzzle: Exclusion 3)	yes (1)
UGAUCUAGGCGAGGAUAUACAUGAGGAUCACCCAUGUAAACGUGACAUGAAAACAUGUCACGAAUGUAGAAGGCGCCUAGAUCU [JL ENG2 3.54] (Eterna round: R96, puzzle: Exclusion NG 2)	no (0)
GUAGAGUCAGGAUAUACGAGAUCGAAAGAUCGGUAGUCCUUACAUGAGGAUCACCCAUGUAGAAGGGACUCUAC [Omei mod 7 to Eli's favorate candidate (ch.parushev)] (Eterna round: R97, puzzle: Exclusion 2)	yes (1)

For the next question, use this sequence.
Reported apparent KD of MS2 coat protein reaches at least 40 nM for CAGUACUGAGGAUAUACAUGAGGAUCACCCAUGUGUUCCGGCUAGGAAACUAGCAAAGGUAGAAGGCAGUACUG [Salish 065 m11] (Eterna round: R97, puzzle: Exclusion 3) ?
yes (1)

----------
System: K4 kissing-loop RNA reporter;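 also: bound reporter read as fluorescence of individual clusters on recovered sequencing chips by microscopy, with normalized cluster intensities fitted with a binding model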
Test: apparent KD of K4 kissing-loop reporter; higher = weaker reporter binding
Details: Eterna round: R107; input ligand: FMN 200 uM
apparent KD of K4 kissing-loop reporter below 200 nM gives No; apparent KD of K4 kissing-loop reporter at or above it gives Yes.

# example entries with known answers
SEQ TEXT	CATEGORY LABEL
AAGCAGUCACUCGAAGCCAUCGAAGAUGGACGAGGACCGGUACGGCCGCCACUCGGAGUGAUGUUCCGAAGACUGCAAAAUAAAA	Yes
CCUUCCUAAAACGAUACCAGUUUCUAUCCUCAAUCCAGUGAUGUUGAAUUGAGCUCACAGAACCCUUGGCAGCGUCGCUAUACGG [theeternabot_sameState_KL_Theo_B_39]	Yes
UAGACCUACUCAGGAUAUCCGCAGUGAUGUUGCGGUUGGCCUGAGCGACAUGAAAAUCUUACUAAAGGAGAAGGGAGAGGGUUAC [Ratiteus]	No
GGAUAGGACUGAGGAUAUGGUAGUGAUGUUACCAAACUGGUUAAACAUGUCAGAAAACUGGCAUGACCAGAAGGCGGUCCUAUCG [FmnBX 27 U10+G76]	No

Reported apparent KD of K4 kissing-loop reporter reaches at least 200 nM for GCAGUGAUGUUGCGGAUGUACAGUGGCGUGCGAGGACCGGUACGGCCGCCACUCGUACAGAGCGAGCUAAUACAUCGAUAGGUGA [whbob_SS_Tryp_A_m5] ?
Yes

Reported apparent KD of K4 kissing-loop reporter reaches at least 200 nM for UGAUACCAGACGGCCGCCACUUCUGCAAGUCAAAGACUUGCUAAGGGAAUCGUCCAGUGAUGUUGGAGGACCGGGUCUGGUAUCU [FiskerMod 2 - Jieux - Exclusion - Tryptophan B] ?
Yes

----------
Overview of recorded apparent KD of MS2 coat protein for various sequences
Tested on: MS2 coat protein
Experiment: apparent KD of MS2 coat protein; designed switch direction (-1 OFF switch, 1 ON switch): -1; higher = weaker reporter binding
Settings: Eterna round: R95; input ligand: FMN 200 uM
All answers are understood in µM, so give the number only.

Some sequences with known apparent KD of MS2 coat protein results, for comparison:
SEQ TEXT	READING UNIT	apparent KD of MS2 coat protein
AAUUAAACAUAGGAUAUCGAAUUUAUUAUUUAACGAGAAGGAUGAACAUGAGGAUCACCCAUGUGGUAUCAUGG [Mat - Exclusion 6 - JL Mod - D23] (puzzle: Exclusion 6)	µM	0.333
AAAUAACAAGCAAGAUCCUACAUGAGGAUCACCCAUGUGCUCGUCUUAUAAAGUACUAUCACGAAAGUGAUAGUACA [Sensor 3, v1 - 11] (puzzle: Sensor v3, turn-off variant 1)	µM	0.675

The sequence listed as GGUCAAGAACAGAACCGCGCUGCCCUUGACCGCUCAUUUACAUGAGGAUCACCCAUGUUUUUUGCUUGUCUUGUUAC [Qugeon] (puzzle: Sensor v3, turn-off variant 2) shows apparent KD of MS2 coat protein equal to 0.0162
